The values you see were collected from patent US20200121803A1.

In this section, each of the binders is paired with its reported ADC potency, IC50 (nM), MOLT4 (leukemia) growth inhibition.
# Tested On: T1, human CD98 on the cell surface (human)
# T1 chain: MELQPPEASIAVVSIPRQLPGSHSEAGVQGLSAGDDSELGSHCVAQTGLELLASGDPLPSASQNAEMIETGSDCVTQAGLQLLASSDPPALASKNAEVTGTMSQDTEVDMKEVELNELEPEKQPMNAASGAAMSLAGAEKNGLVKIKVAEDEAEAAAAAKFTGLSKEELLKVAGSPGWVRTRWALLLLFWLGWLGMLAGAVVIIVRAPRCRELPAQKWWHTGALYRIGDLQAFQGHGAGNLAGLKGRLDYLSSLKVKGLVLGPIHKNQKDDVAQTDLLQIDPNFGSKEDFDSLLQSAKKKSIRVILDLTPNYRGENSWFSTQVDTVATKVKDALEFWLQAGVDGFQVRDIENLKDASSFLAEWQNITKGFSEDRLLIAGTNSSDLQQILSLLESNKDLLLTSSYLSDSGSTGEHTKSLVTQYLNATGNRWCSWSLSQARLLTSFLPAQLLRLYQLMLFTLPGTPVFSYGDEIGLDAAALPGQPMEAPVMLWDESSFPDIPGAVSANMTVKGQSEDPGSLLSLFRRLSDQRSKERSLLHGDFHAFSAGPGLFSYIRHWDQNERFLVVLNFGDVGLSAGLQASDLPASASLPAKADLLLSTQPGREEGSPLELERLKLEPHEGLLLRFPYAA
# Test: cell-based or functional assay
Metric: ADC potency, IC50 (nM), MOLT4 (leukemia) growth inhibition

Binder | Reported
ChAb8-CZ (other, synthon CZ on reduced interchain Cys of the constant regions (sites not numbered)) VH: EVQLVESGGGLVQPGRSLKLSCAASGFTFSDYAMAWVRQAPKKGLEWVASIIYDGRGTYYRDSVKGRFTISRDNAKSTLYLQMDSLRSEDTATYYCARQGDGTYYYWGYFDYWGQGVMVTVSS VL: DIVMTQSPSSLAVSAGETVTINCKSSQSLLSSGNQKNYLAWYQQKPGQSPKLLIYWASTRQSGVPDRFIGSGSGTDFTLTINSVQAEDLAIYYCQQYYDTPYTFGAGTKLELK | 0.038 nM
ChAb15-CZ (other, synthon CZ on reduced interchain Cys of the constant regions (sites not numbered)) VH: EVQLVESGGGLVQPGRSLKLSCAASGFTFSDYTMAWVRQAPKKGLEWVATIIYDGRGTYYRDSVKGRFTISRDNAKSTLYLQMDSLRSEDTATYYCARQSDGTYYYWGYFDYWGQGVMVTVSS VL: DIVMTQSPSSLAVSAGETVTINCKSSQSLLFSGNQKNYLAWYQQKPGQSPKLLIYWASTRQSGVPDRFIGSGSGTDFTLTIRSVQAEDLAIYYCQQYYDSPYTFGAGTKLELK | 0.048 nM
ChAb10-CZ (other, synthon CZ on reduced interchain Cys of the constant regions (sites not numbered)) VH: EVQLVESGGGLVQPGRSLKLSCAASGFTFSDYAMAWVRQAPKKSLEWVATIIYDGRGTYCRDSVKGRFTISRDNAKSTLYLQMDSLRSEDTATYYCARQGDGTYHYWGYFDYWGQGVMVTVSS VL: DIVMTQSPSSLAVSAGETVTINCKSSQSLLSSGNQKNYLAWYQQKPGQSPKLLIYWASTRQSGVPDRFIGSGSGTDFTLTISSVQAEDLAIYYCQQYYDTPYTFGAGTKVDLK | 0.035 nM
